system: MDA-MB-231; assay: Growth inhibition of human MDA-MB-231 cells after 72 hrs by CellTiter-Glo reagent based assay; assay type: functional; details: MDA-MB-231, 72 h
measured_attribute: CC50 (µM)
I only need the number, in µM, no unit after it.

Given item `COc1cc(/C=C2/C(C)=C(CC(=O)N3CCN(c4ccncc4)CC3)c3cc(F)ccc32)cc(OC)c1OC` , the value recorded as its CC50 is 6.5

Given item `CC1=C(CC(=O)NCCN2CCCC2)c2cc(F)ccc2/C1=C\c1nc2ccccc2s1` , the value recorded as its CC50 is 3.56

Given item `COc1cc(/C=C2/C(C)=C(CC(=O)NCCN(C)C)c3cc(F)ccc32)cc(OC)c1OC` , the value recorded as its CC50 is 15.1

Given item `CNCCN(C)C(=O)CC1=C(C)/C(=C/c2ccc(SC)cc2)c2ccc(F)cc21` , the value recorded as its CC50 is 5.84

Given item `CCNCCCN(CC)C(=O)CC1=C(C)/C(=C/c2ccc(SC)cc2)c2ccc(F)cc21` , the value recorded as its CC50 is 3.03

Given item `CSc1ccc(/C=C2/C(C)=C(CC(=O)NCc3ccccn3)c3cc(F)ccc32)cc1` , the value recorded as its CC50 is 13.7
